Target: T1, UNK ZnF1-3 (human, UniProt Q9C0B0 31-174)
T1 sequence: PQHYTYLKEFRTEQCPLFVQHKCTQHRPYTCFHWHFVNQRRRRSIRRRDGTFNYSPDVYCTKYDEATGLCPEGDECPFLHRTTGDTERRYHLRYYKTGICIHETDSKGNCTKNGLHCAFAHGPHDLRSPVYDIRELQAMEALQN
Experiment: nsRBNS (natural sequence RNA bind-n-seq); RBNS binding buffer (assumed for nsRBNS): 25 mM Tris pH 7.5, 150 mM KCl, 3 mM MgCl2, 0.01% Triton X-100, 500 ug/ml BSA, 20 U/ml SUPERase-In, 4 C; UNK is unkempt and MSI1 is Musashi-1; names of the RNAs are library labels; protein concentration not given here; high values mean tight binding
In all, about 24,000 sequences were measured (“enrichment r”: median about 0.99, highest 2% from about 3.7 on). The sample as a whole holds a higher share of the highest values than the screen did.
Use True when the recorded binding signal is no lower than 0.9 enrichment R; use False when it is lower.

- binder: "chr9:88635815:88635816:+_ENSG00000135040_ENST00000361671|hu_hu|FALSE|FALSE (ssRNA) RNA: GGGAGUUCUACAGUCCGACGAUCUCCUCCUGCCAAUAACUUCAUAACCACAAAGUUGGGUUUGGCAACCUUUAAAAUUCUAUUAACCUCAUGGUCCGGGUUAGGAAUAUUUUCCAAUAUCAUUUUUGCCUGUUGAAAGUGCUUCAACAGAGGAUUGAGCAUCA"
  cat: "True"
- binder: "chr17:17165348:17165349:-_ENSG00000141030_ENST00000268717|hu_mus|motif|central (ssRNA) RNA: GGGAGUUCUACAGUCCGACGAUCUAUUUGAGAGGUGUAUUUAGGCAGCUGUUGUACUUUGCCAAGUAAUAUCAAAGACACGGGAAUAUACUUUUUAUAUGAUUCCAACAUGAUAUGGCUGACGGCCAUGGCAGGAGUAGUUAUCAACAGAGGAUUGAGCAUCA"
  cat: "True"
- binder: "chrX:153994619:153994620:+_ENSG00000130826_ENST00000369550|hu_mus|FALSE|FALSE (ssRNA) RNA: GGGAGUUCUACAGUCCGACGAUCUCCAACAUACUCUUUGCCUGCACUCUGUUGUGAUUUCACCAAACGAGUGGCUCGUUCAAUGCACACAAUUAAACAACCAGUCACUUUGGGAUCUAGUGUGCCACUGUGGCCAGUCUUCUCCAACAGAGGAUUGAGCAUCA"
  cat: "False"
- binder: "chr7:75956504:75956505:-_ENSG00000170027_ENST00000307630|hu_mus|motif|central (ssRNA) RNA: GGGAGUUCUACAGUCCGACGAUCAUAGAACUGCAUGUCACUAUAGCAACAUCCAAAACAGAUCAAUCUGUUACAAUCACGGUUUGGUAAAGCAAACUUUACCCCUGAAAGGAAAAAAUUAAAUUAAAAAAAAGAAGUUUAAAACAACAGAGGAUUGAGCAUCA"
  cat: "True"
- binder: "chr19:60013232:60013233:-_ENSMUSG00000040022_ENSMUST00000171986|mus_hu|FALSE|FALSE (ssRNA) RNA: GGGAGUUCUACAGUCCGACGAUCCUUAUCUUUUAACUUUGCAAAAGGAGAUCUGGUUUUGUCCUUCAUUGAUAAGUCAAACAUACUUGCGGUCAUAUUGUUCCUCAUAAACUGAAUAUUGACCUUUAUCUCACCCCUGUUUUUCAACAGAGGAUUGAGCAUCA"
  cat: "False"
- binder: "chr15:51674161:51674162:-_ENSMUSG00000022312_ENSMUST00000022925|mus_mus|motif|central (ssRNA) RNA: GGGAGUUCUACAGUCCGACGAUCCUGAACAACCUCAGUGCCUUGUCCUUCUUCUUGAUAAUGUUUGAUUAUCUUUAAUACGGCCAGGCCGUCGAUCUGCACCUGCUUCACGGCCGAAUCUCCGGAGCCGCCUUUGCCUUUGCCCAACAGAGGAUUGAGCAUCA"
  cat: "False"
